Values compiled from paper PMC9352680.

Target: T1, PUF4 RNA-binding domain (Saccharomyces cerevisiae, UniProt P25339 537-888)
T1 sequence: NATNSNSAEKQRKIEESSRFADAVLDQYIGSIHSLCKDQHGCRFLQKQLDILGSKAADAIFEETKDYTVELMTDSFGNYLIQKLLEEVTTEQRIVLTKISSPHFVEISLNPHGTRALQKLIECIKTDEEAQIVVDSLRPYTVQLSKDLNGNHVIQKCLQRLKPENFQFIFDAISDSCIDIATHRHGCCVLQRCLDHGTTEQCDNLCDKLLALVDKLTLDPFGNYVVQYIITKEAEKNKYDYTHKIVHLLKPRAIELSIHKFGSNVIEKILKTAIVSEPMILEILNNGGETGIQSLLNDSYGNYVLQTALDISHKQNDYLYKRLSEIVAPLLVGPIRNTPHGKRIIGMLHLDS
Experiment: Mg; RNA-MaP; 20 mM Na-HEPES pH 7.4, 30 mM KOAc, 0.75 mM MgCl2, 0.1% Tween-20, 5% glycerol, 0.1 mg/mL BSA, 2 mM DTT; 25 C; 0.0125-409.6 nM protein
Conditions: tags: N-His6-TEV cleaved; C-SNAP kept, Cy3B-labelled; label: tethered on chip by stalled RNA polymerase
READOUT NAME: pKd
One number for each entry, as −log10 of the molar value.

These solved cases illustrate the format of a correct answer.
[
  {
    "BINDER": "UCUCUUUGUUUUGUUAUCUCUU (ssRNA) [Ib_S1_P5E.1_K5.1_C5.1_H5.1_[A4T]_A5.1_[A7G]_F5.1_T5.1]",
    "pKd": 6.37
  },
  {
    "BINDER": "UCUCUUUGUAUACCCUCUCUU (ssRNA) [Ic_S1_P4E.1_K4.1_C4.1_H4.1_A4.1_[T7C]_F4.1_[T8C]_[A9C]_T4.1]",
    "pKd": 7.03
  },
  {
    "BINDER": "UCUCUUUGUACACCCCUCUCUU (ssRNA) [Ic_S1_P5E.1_K5.1_C5.1_H5.1_A5.1_[T5C]_[T6A]_[A7C]_F5.1_[T8C]_[T9C]_[A10C]_T5.1]",
    "pKd": 6.95
  },
  {
    "BINDER": "Ic_S2_P4E.1_K4.1_C4.1_H4.1_A4.1_[T5C]_[A6T]_[T7C]_F4.1_[T8C]_[A9T]_T4.1 (ssRNA) RNA: UUUGAUUAAUAUGAUAUCGUUCUUUCUUGUACUCCUUUCUUUCUCGAUAUCAUAUUAAUCUUU",
    "pKd": 6.99
  }
]

input: Find the recorded pKd belonging to Id_ii_S2_P4E.3_K4.2_C4.2_H4.2_A4.1_F4.1_T4.2_[G10A]_[T11C] (ssRNA) RNA: UUUGAUUAAUAUGAUAUCGUUCUUUCUCUUAUAUAUUAACUUCUUUCUCGAUAUCAUAUUAAUCUUU and report it.
output: 7.85
